protocol_text: amyloid nucleation score (Sup35N fusion, yeast selection) (log enrichment); library NNK1; higher = more nucleation; inactive = no reads after selection;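 further: zero at mode of non-aggregating sequences after 7 days selection at 30°C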
// rule not met strictly below 0.2 in amyloid nucleation score; rule met otherwise

VTRYTLVYFPLSLIRSTPAN ... rule met
FSNIWMSTMVPSRVRKARCV ... rule not met
NRAECSFVCTEYVNICK ... rule not met
QIINKFTSDIVLTD ... rule met
MNLYNRNYLYCIYRKETTTT ... rule not met
HFMWAYRCSDYDLM ... rule met
FRGSRELNMSSQGVGACLIR ... rule not met
ESLFLVCRPRRQVFIVSCRS ... rule not met
TGIYYWNRKLGRYRLHVHVV ... rule not met
GYNNRRDFPLSMPCRH ... rule not met

Query: Decide: is the reported value of amyloid nucleation score for `AICRLDVVWVT` equal to or greater than 0.2?
Result: rule not met

Query: Quick check: does `LFTTWMSRGDIVSYNFFL` have amyloid nucleation score greater than or equal to 0.2?
Result: rule met

Query: Say whether `ININGNVY` shows amyloid nucleation score of 0.2 or more.
Result: rule met

Query: Quick check: does `FIRASWCSRIYIKFVN` have amyloid nucleation score greater than or equal to 0.2?
Result: rule met

Query: Please check the record `FSPLCKPLNSWYNQVKYRRH` and state if its amyloid nucleation score is at or above 0.2.
Result: rule not met

Query: Please check the record `SIANVSFW` and state if its amyloid nucleation score is at or above 0.2.
Result: rule met
